assay target: ΔCTD_Reg1 (amino acids 1 to 546 of human Regnase-1) phosphorylation by TBK1 (Homo sapiens)
Construct: made in house; host or cells: Expi293 cells
Sequence (Q5D1E8 1-546, stated change not applied): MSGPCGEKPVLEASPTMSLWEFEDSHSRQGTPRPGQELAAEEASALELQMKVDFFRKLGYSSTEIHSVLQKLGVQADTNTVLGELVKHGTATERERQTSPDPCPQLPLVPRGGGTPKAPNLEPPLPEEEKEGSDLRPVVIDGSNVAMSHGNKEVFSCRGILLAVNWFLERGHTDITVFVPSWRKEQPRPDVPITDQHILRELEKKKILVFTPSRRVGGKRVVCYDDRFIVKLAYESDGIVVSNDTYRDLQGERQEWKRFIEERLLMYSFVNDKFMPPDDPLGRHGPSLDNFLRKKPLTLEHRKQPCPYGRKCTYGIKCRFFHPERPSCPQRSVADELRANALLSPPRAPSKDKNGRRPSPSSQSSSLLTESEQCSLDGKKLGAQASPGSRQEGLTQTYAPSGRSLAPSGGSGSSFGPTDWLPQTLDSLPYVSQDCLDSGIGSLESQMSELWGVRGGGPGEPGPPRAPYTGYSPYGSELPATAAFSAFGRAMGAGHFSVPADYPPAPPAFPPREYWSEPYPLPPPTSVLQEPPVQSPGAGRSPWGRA
measurement protocol: Regnase-1 phosphorylation inhibition by compounds (AlphaScreen), TBK1, CTD-deficient Regnase-1
Format: biochemical
condition parameters: Table 13; phosphorylation by TBK1; read-out: Phosphorylation inhibition ΔCTD_Reg1, 50% inhibition concentration (TBK1)
Residues, ends and D or L forms follow the SMILES beside them.
# Lookup of reported IC50 keyed by entry

Example entries begin here.
compound | result
CC[C@H](C)[C@@H]1NC(=O)[C@H](Cc2c[nH]c3ccccc23)NC(=O)[C@@H](Cc2ccccc2)NC(=O)[C@H](CCCCN)NC(=O)[C@H](C)N(C)C(=O)C[C@@H](C(=O)N2CCCC2)NC(=O)[C@H](CCC(=O)O)NC(=O)[C@H](Cc2ccccc2)NC(=O)[C@H](CO)NC(=O)[C@H](Cc2c[nH]cn2)NC(=O)[C@H](Cc2c[nH]cn2)NC1=O [PP20] (HELM PEPTIDE1{[meA].K.[dF].W.I.H.H.S.F.E.D.[C1CCN([*:1])C1]}$PEPTIDE1,PEPTIDE1,1:R1-11:R3$$$V2.0) | > 62.1 µM
CC[C@H](C)[C@@H]1NC(=O)[C@H](CC(=O)O)NC(=O)[C@H](C)N(C)C(=O)C[C@@H](C(=O)N2CCCC2)NC(=O)[C@H](Cc2ccc(O)cc2)NC(=O)[C@H](CC(=O)O)NC(=O)[C@H](Cc2c[nH]c3ccccc23)NC(=O)[C@H](Cc2ccc(O)cc2)NC(=O)[C@H](CC(=O)O)NC(=O)[C@H](Cc2ccccc2)NC(=O)[C@H](Cc2c[nH]c3ccccc23)NC1=O [PP18] (HELM PEPTIDE1{[meA].D.I.W.F.D.Y.W.D.Y.D.[C1CCN([*:1])C1]}$PEPTIDE1,PEPTIDE1,1:R1-11:R3$$$V2.0) | 1.8 µM

The value of IC50 measured for the compound CC[C@H](C)[C@@H]1NC(=O)[C@H](CCCCN)NC(=O)[C@H](Cc2ccc(O)cc2)NC(=O)[C@H](Cc2ccccc2)NC(=O)[C@H](C(C)C)NC(=O)[C@H](C)N(C)C(=O)C[C@@H](C(=O)N2CCCC2)NC(=O)[C@H](Cc2c[nH]c3ccccc23)NC(=O)[C@H](CC(N)=O)NC(=O)[C@H](Cc2ccc(O)cc2)NC(=O)[C@H](Cc2c[nH]c3ccccc23)NC1=O [PP19] (HELM PEPTIDE1{[meA].V.F.Y.K.I.W.Y.N.W.D.[C1CCN([*:1])C1]}$PEPTIDE1,PEPTIDE1,1:R1-11:R3$$$V2.0) turned out to be 4.6 µM

* * *

Measured IC50 of individual entries
assay target: Reg1_301-599 (amino acids 301-599 of human Regnase-1) phosphorylation by TBK1 (Homo sapiens)
Sequence (Q5D1E8 301-599): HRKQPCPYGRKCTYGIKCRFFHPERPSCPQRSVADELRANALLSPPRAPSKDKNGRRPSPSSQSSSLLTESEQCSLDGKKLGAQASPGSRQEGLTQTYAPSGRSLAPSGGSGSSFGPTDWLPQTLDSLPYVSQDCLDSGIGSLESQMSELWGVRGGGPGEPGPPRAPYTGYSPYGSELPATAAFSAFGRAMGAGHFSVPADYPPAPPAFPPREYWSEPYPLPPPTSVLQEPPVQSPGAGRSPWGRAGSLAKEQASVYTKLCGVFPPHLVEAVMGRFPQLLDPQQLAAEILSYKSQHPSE
Residues, ends and D or L forms follow the SMILES beside them.

compound | result
CC[C@H](C)[C@@H]1NC(=O)[C@H](CCCNC(=N)N)NC(=O)[C@H](Cc2ccc(O)cc2)NC(=O)[C@H](Cc2c[nH]c3ccccc23)NC(=O)[C@H](C)NC(=O)[C@H](CO)NC(=O)[C@H](C)NC(=O)[C@H](Cc2c[nH]cn2)NC(=O)[C@H](CCCCN)NC(=O)[C@@H](C)N(C)C(=O)C[C@@H](C(=O)N2CCCC2)NC(=O)[C@H](Cc2c[nH]c3ccccc23)NC1=O [PP3] (HELM PEPTIDE1{[C[C@H](C(=O)[*:2])N(C)[*:1]].K.H.A.S.A.W.Y.R.I.W.D.[C1CCN([*:1])C1]}$PEPTIDE1,PEPTIDE1,1:R1-12:R3$$$V2.0) | 7.1 µM
CC[C@H](C)[C@@H]1NC(=O)[C@H](CC(N)=O)NC(=O)[C@H](Cc2ccc(O)cc2)NC(=O)[C@H](Cc2c[nH]c3ccccc23)NC(=O)[C@H](CO)NC(=O)[C@H](CC(N)=O)NC(=O)[C@H](CO)NC(=O)[C@H](Cc2ccccc2)NC(=O)[C@H](CC(N)=O)NC(=O)[C@H](C)N(C)C(=O)C[C@@H](C(=O)N2CCCC2)NC(=O)[C@H](Cc2c[nH]c3ccccc23)NC1=O [PP16] (HELM PEPTIDE1{[meA].N.F.S.N.S.W.Y.N.I.W.D.[C1CCN([*:1])C1]}$PEPTIDE1,PEPTIDE1,1:R1-12:R3$$$V2.0) | > 62.1 µM
CC[C@H](C)[C@@H]1NC(=O)[C@H](Cc2c[nH]c3ccccc23)NC(=O)[C@H](CCC(N)=O)NC(=O)[C@H](Cc2ccc(O)cc2)NC(=O)[C@H](C(C)C)NC(=O)[C@H](C)NC(=O)[C@H](Cc2ccc(O)cc2)NC(=O)[C@H](CCCNC(=N)N)NC(=O)[C@H](C)N(C)C(=O)C[C@@H](C(=O)N2CCCC2)NC(=O)[C@@H]2CCCN2C(=O)[C@H](Cc2ccc(O)cc2)NC1=O [PP12] (HELM PEPTIDE1{[meA].R.Y.A.V.Y.Q.W.I.Y.P.D.[C1CCN([*:1])C1]}$PEPTIDE1,PEPTIDE1,1:R1-12:R3$$$V2.0) | 19.6 µM
CC[C@H](C)[C@@H]1NC(=O)[C@H](C)NC(=O)[C@H](CCCNC(=N)N)NC(=O)[C@H](Cc2ccc(O)cc2)NC(=O)[C@H](Cc2ccc(O)cc2)NC(=O)[C@H](C)NC(=O)[C@H](CO)NC(=O)[C@H](CC(N)=O)NC(=O)[C@H](Cc2ccccc2)NC(=O)[C@H](CC(N)=O)NC(=O)[C@H](C)N(C)C(=O)C[C@@H](C(=O)N2CCCC2)NC(=O)[C@H](Cc2c[nH]c3ccccc23)NC1=O [PP7] (HELM PEPTIDE1{[meA].N.F.N.S.A.Y.Y.R.A.I.W.D.[C1CCN([*:1])C1]}$PEPTIDE1,PEPTIDE1,1:R1-13:R3$$$V2.0) | 4.6 µM
CC[C@H](C)[C@@H]1NC(=O)[C@H](Cc2c[nH]c3ccccc23)NC(=O)[C@H](CO)NC(=O)[C@H](Cc2c[nH]c3ccccc23)NC(=O)[C@H](C(C)C)NC(=O)CNC(=O)[C@H](Cc2ccccc2)NC(=O)[C@H](CCCNC(=N)N)NC(=O)[C@H](C)N(C)C(=O)C[C@@H](C(=O)N2CCCC2)NC(=O)[C@@H]2CCCN2C(=O)[C@H](Cc2ccc(O)cc2)NC1=O [PP14] (HELM PEPTIDE1{[meA].R.F.G.V.W.S.W.I.Y.P.D.[C1CCN([*:1])C1]}$PEPTIDE1,PEPTIDE1,1:R1-12:R3$$$V2.0) | 6.8 µM
CC[C@H](C)[C@@H]1NC(=O)[C@H](Cc2c[nH]c3ccccc23)NC(=O)[C@H](CCCNC(=N)N)NC(=O)[C@H](Cc2ccccc2)NC(=O)[C@H](CCC(N)=O)NC(=O)[C@H](C)NC(=O)[C@H](Cc2ccccc2)NC(=O)[C@H](CCCCN)NC(=O)[C@H](C)N(C)C(=O)C[C@@H](C(=O)N2CCCC2)NC(=O)[C@@H]2CCCN2C(=O)[C@H](Cc2ccc(O)cc2)NC1=O [PP11] (HELM PEPTIDE1{[meA].K.F.A.Q.F.R.W.I.Y.P.D.[C1CCN([*:1])C1]}$PEPTIDE1,PEPTIDE1,1:R1-12:R3$$$V2.0) | > 62.1 µM
CC[C@H](C)[C@@H]1NC(=O)[C@H](CCCCN)NC(=O)[C@H](Cc2ccc(O)cc2)NC(=O)[C@H](Cc2ccccc2)NC(=O)[C@H](C(C)C)NC(=O)[C@H](C)N(C)C(=O)C[C@@H](C(=O)N2CCCC2)NC(=O)[C@H](Cc2c[nH]c3ccccc23)NC(=O)[C@H](CC(N)=O)NC(=O)[C@H](Cc2ccc(O)cc2)NC(=O)[C@H](Cc2c[nH]c3ccccc23)NC1=O [PP19] (HELM PEPTIDE1{[meA].V.F.Y.K.I.W.Y.N.W.D.[C1CCN([*:1])C1]}$PEPTIDE1,PEPTIDE1,1:R1-11:R3$$$V2.0) | 5.8 µM

// switching to the query compound
For CC[C@H](C)[C@@H]1NC(=O)[C@H](Cc2c[nH]c3ccccc23)NC(=O)[C@@H](Cc2ccccc2)NC(=O)[C@H](CCCCN)NC(=O)[C@H](C)N(C)C(=O)C[C@@H](C(=O)N2CCCC2)NC(=O)[C@H](CCC(=O)O)NC(=O)[C@H](Cc2ccccc2)NC(=O)[C@H](CO)NC(=O)[C@H](Cc2c[nH]cn2)NC(=O)[C@H](Cc2c[nH]cn2)NC1=O [PP20] (HELM PEPTIDE1{[meA].K.[dF].W.I.H.H.S.F.E.D.[C1CCN([*:1])C1]}$PEPTIDE1,PEPTIDE1,1:R1-11:R3$$$V2.0) the compound record lists IC50 as > 62.1 µM
